Target: LAT1 (Homo sapiens)
Sequence (Q01650 whole entry): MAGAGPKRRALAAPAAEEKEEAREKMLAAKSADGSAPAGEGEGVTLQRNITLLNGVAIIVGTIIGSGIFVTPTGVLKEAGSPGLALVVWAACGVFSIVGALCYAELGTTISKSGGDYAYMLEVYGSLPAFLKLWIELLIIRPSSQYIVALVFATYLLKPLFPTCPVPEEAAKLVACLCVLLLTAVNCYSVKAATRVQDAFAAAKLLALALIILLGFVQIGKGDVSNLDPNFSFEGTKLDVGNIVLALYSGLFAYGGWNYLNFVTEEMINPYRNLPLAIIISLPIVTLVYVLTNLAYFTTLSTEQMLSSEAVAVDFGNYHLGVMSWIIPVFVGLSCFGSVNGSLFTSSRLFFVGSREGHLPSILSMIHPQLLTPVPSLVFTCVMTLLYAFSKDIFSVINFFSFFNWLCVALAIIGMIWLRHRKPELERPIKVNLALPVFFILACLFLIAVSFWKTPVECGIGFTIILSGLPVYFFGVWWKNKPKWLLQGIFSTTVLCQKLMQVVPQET
Sequence (P08195 102-630 partner): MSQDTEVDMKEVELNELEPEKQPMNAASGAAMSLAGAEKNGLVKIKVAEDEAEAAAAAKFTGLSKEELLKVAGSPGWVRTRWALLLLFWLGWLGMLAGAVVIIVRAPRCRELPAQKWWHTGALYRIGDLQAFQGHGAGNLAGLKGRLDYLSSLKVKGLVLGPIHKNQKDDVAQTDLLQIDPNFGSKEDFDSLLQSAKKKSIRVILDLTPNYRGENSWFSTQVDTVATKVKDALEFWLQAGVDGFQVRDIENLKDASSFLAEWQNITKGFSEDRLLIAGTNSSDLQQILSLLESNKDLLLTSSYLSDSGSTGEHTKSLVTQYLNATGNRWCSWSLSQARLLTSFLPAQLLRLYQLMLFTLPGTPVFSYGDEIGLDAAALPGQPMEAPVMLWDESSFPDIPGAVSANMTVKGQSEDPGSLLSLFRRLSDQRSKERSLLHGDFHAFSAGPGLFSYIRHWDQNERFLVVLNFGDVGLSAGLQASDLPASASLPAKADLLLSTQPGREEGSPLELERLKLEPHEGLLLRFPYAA
Assay: Inhibition of DOX or Asp-DOX uptake into S2-LAT1 cells by amino acids
Assay type: cell-based
Conditions: 100 μmol/L amino acid, 20 μmol/L Asp-DOX, 2 min
readout kind: Inhibition of the uptake of Asp-DOX by amino acids

Recorded Inhibition of the uptake of Asp-DOX by amino acids, per entry:
| smiles text | result |
| --- | --- |
| NCC(=O)O | no inhibition |
| N[C@@H](Cc1ccccc1)C(=O)O | strongly inhibited |
| CC(C)C[C@H](N)C(=O)O | strongly inhibited |
| CSCC[C@H](N)C(=O)O | strongly inhibited |
| N[C@@H](CCC(=O)O)C(=O)O | no inhibition |

We now examine a further compound.
For C[C@H](N)C(=O)O , what is its reported Inhibition of the uptake of Asp-DOX by amino acids? no inhibition
